Data provenance is the supplement of paper PMC13380429.

Quick reference for SARS-CoV-2 infection rate among some compounds
System: Vero E6 infected with SARS-CoV-2
experimentNotes: SARS-CoV-2 infection rate relative to infected DMSO; higher = more infection, active = 60 or less
testConditions: 24 h

compound: O=C(O)c1cc2ccccc2s1 (10 µM)
SARS-CoV-2 infection rate: 88% (inactive)
--
compound: CCn1cc(C(=O)O)c(=O)c2cc(F)c(N3CCNCC3)nc21 [enoxacin] (10 µM)
SARS-CoV-2 infection rate: 105% (inactive)
--
compound: COc1cccc(CCc2ccccc2OCC[C@@H]2C[C@@H](O)CN2C)c1 (10 µM)
SARS-CoV-2 infection rate: 54.5% (active)
--
compound: CN1CCc2cc(Cl)c(O)cc2[C@@H](c2ccccc2)C1 (10 µM)
SARS-CoV-2 infection rate: 108% (inactive)
--
compound: O=C(NCc1ccccc1)OCCO [buramate] (10 µM)
SARS-CoV-2 infection rate: 84.5% (inactive)
--
compound: COc1cc2cc(c1Cl)N(C)C(=O)C[C@H](OC(=O)C(C)C)[C@]1(C)O[C@@H]1[C@H](C)[C@@H]1C[C@@](O)(NC(=O)O1)[C@H](OC)/C=C/C=C(\C)C2 [ansamitocin-p-3] (0.833333 µM)
SARS-CoV-2 infection rate: 114% (inactive)
--
compound: NC(=O)C[S+]([O-])C(c1ccccc1)c1ccccc1 (centres undefined) (10 µM)
SARS-CoV-2 infection rate: 106% (inactive)
--
compound: COC(=O)c1sccc1S(=O)(=O)Nc1ccc(Nc2ccccc2)cc1OC (10 µM)
SARS-CoV-2 infection rate: 95% (inactive)
--
compound: CCCCOc1ccc(CC(=O)NO)cc1 [bufexamac] (10 µM)
SARS-CoV-2 infection rate: 94% (inactive)

---

Quick reference for SARS-CoV-2 infection rate among some molecules
Test system: Vero E6 infected with SARS-CoV-2
experimentNotes: SARS-CoV-2 infection rate relative to infected DMSO; higher = more infection, active = 60 or less
testConditions: 24 h
endpointLabel: SARS-CoV-2 infection rate (%)

molecule: NC[C@H]1O[C@H](O[C@H]2[C@H](O)[C@@H](O[C@H]3O[C@H](CO)[C@@H](O)[C@H](N)[C@H]3O)[C@H](N)C[C@@H]2N)[C@H](N)C[C@@H]1O [tobramycin] (10 µM)
observedValue: 113

molecule: CC(C)c1onc(-c2c(Cl)cccc2Cl)c1COc1ccc(/C=C/c2cccc(C(=O)O)c2)c(Cl)c1 (10 µM)
observedValue: 96.5

molecule: CCNC(=O)c1noc(-c2cc(C(C)C)c(O)cc2O)c1-c1ccc(CN2CCOCC2)cc1 (0.833333 µM)
observedValue: 94

molecule: O=C1c2ccccc2C(=O)C1c1ccc(Br)cc1 [bromindione] (10 µM)
observedValue: 93.5

molecule: Cc1cc(-c2ccccc2)nnc1NCCN1CCOCC1 [minaprine] (10 µM)
observedValue: 103

---

Tested on: Vero E6 infected with SARS-CoV-2
experimentNotes: inhibition of SARS-CoV-2 cytopathic effect; higher = more antiviral protection, active = above 15
testConditions: 1 nM; 48 h
endpointLabel: inhibition of SARS-CoV-2 cytopathic effect (%)

molecule: CC(=O)O[C@]1(C(C)=O)CC[C@H]2[C@@H]3C[C@H](C)C4=CC(=O)CC[C@]4(C)[C@H]3CC[C@@]21C [medroxyprogesterone-acetate]
observedValue: 1.02
--
molecule: COc1ccc2nc(NC(=O)Nc3ccccc3)sc2c1 [frentizole]
observedValue: -3.36
--
molecule: COc1cc2/c(=N/c3ccc(Br)cc3F)nc[nH]c2cc1OCC1CCN(C)CC1 [vandetanib]
observedValue: -1.28
--
molecule: Cc1cccc(C(C)c2c[nH]cn2)c1C (centres undefined) [medetomidine]
observedValue: 0.12
